- Test system: MS2 coat protein
- test summary: apparent KD of MS2 coat protein; designed switch direction (-1 OFF switch, 1 ON switch): -1; higher = weaker reporter binding
- reported conditions: input ligand: none
We use 50 nM as the dividing line for apparent KD of MS2 coat protein: on or above the line is T, below is F.

# residues, target entity, classification
data = [
    ("AAAAAGUCAGGAUAUGUAGCAAAAGGUGAUCAAAAAAAGCUACAGAAGGGACAUGAGGAUCACCCAUGUAAAAA [Ex4: 937] (Eterna round: R96, puzzle: Exclusion 4)", "MS2 coat protein", "T"),
    ("UCUUCACAUGAGGAUCACCCAUGUCAGGAUAUGCUCCCGAGUCACCUUAUCAUGGGACGCAGAAGGGACAUUAU [EX1 B.3] (Eterna round: R97, puzzle: Exclusion 1)", "MS2 coat protein", "F"),
    ("GGUUAGCGAGGAUAUACAUGAGGAUCACCCAUGUGAUCCUAAGGCUGAUCAAGCCUAUGUAGAAGGCGCAAAUC [salish99_ex3_r4_008] (Eterna round: R97, puzzle: Exclusion 3)", "MS2 coat protein", "T"),
    ("GGCUGCAAUGUAGGAUAUCUGCACGUUUAGUGCAGAGAAGGACAUGAGGAUCACCCAUGUAUAGUAGCUUCGGCUACAGCAGCC [ENG1-D2] (Eterna round: R96, puzzle: Exclusion NG 1)", "MS2 coat protein", "F"),
    ("CCGGAAAGGAAGGAUAUGCUAGACGAUAGUCUAGCAGAAGGUCCUACAUGAGGAUCACCCAUGUGGCCUCCCGG [Mat - Exclusion 6 - Eli Mod - D47] (Eterna round: R97, puzzle: Exclusion 6)", "MS2 coat protein", "T"),
    ("CAGUACUGAGGAUAUACAUGAGGAUCACCCAUGUCCUUCAGCUAGGAAACUAGCGAAAGUAGAAGGCAGUACUG [Eli x3 4.001] (Eterna round: R97, puzzle: Exclusion 3)", "MS2 coat protein", "F"),
    ("UCGACUACAGUAGGAUAUGUAGGAUAUGUGGUUGAGGAUCACCCAACCACUUCAACGACAGAAGGACAGAAGGACUGACAUCGU [pwkr exNG2 2xFMN 1xF5.4] (Eterna round: R96, puzzle: Exclusion NG 2)", "MS2 coat protein", "F"),
    ("CACCUGAAUACAGGAUAUCUUACAUGAGGAUCACCCAUGUAAUAAAUGAGAAUUUCGAAUGUAAUAGAGAAGGGUAGAUAAGGC [Ostracism 87 - Jieux - Exclusion NG 2] (Eterna round: R96, puzzle: Exclusion NG 2)", "MS2 coat protein", "F"),
    ("ACAUGAGGAUCACCCAUGUCGAGUACAUGAGGAUCACCCAUGUAGGAUAUGGUUCGCUUUGCGUGCUAGAAGGAUAUAUGUUGA [salish99_ExNG3_r04_511] (Eterna round: R96, puzzle: Exclusion NG 3)", "MS2 coat protein", "T"),
    ("AUAAUGUGAGGAUAUCACGGCCCGGUAAAUCCGGUAAACGAUGAGAAGGCACAUGAGGAUCACCCAUGUUCCUG [EX4 A.2] (Eterna round: R97, puzzle: Exclusion 4)", "MS2 coat protein", "F"),
    ("UAUUAGCAAGUGAGGUCCCACAUGAGGAUCACCCAUGUGCUCGUCUUAUAAGGUACUGUGACGAUAGUCACGGUACC [Mat - Sensor, turn-off var - Eli Mod - D51] (Eterna round: R97, puzzle: Sensor, turn-off variant 1)", "MS2 coat protein", "F"),
    ("GAGAACUGAGGAUAUACAUGAGGAUCACCCAUGUUGAGAAGAAAGUAUAAAAGAUUGUGUAGAAGGCAGAGAGA [JR_Ex3_Sub069] (Eterna round: R97, puzzle: Exclusion 3)", "MS2 coat protein", "F"),
    ("GUAUAACAUGUAGGAUAUGCAUGGCAAAGCUAUGCAGAAGGACAUGAGGAUCACCCAUGUAAUAGCGUCUGCGUACAGAUGCAA [Mat - Exclusion NG 1 - Mod of JL - D92] (Eterna round: R96, puzzle: Exclusion NG 1)", "MS2 coat protein", "F"),
    ("CAGCUGAAAGUCAGGAUAUCUAGAGCCUCGGCUCUAGAGAAGGGACAUGAGGAUCACCCAUGUGGUCACAGCUG [BmEx4/5-A2] (Eterna round: R97, puzzle: Brourd's mod of Exclusion 4)", "MS2 coat protein", "T"),
    ("CAGUACUGAGGAUAUACAUGAGGAUCACCCAUGUGUGUGAAAUUUAUGUGGUCGUAAUGUAGAAGGCAGUACUG [JR_Ex3_Sub028] (Eterna round: R97, puzzle: Exclusion 3)", "MS2 coat protein", "T"),
    ("AGCGAGGCAGGAUAUACAUGAGGAUCACCCAUGUGCUUGCAUGGCGUGGGACGUCAACGUAGAAGGGCCAUGCC [EX3 #68] (Eterna round: R97, puzzle: Exclusion 3)", "MS2 coat protein", "T"),
    ("AUUAGCGUAGGAUAUUGAAACAUGUACAUGAGGAUCACCCAUGUGAGGUGAGUCUUCGUUUAAGAAGGGCGCAGAA [EX5 #40] (Eterna round: R97, puzzle: Exclusion 5)", "MS2 coat protein", "T"),
]
